molecules and their reported Δ G Dvl-1 PDZ
Target: Dvl-1 PDZ (Homo sapiens, UniProt O14640, C338S/V250I)
Settings: ITC
quantity: Δ G Dvl-1 PDZ (kcal mol ^-1)

>>> value_reported("Cc1ccc(NS(=O)(=O)c2ccc(CNC(=O)c3c[nH]c4ccccc34)c(Cl)c2)c(C(=O)O)c1")
-7.0
>>> value_reported("Cc1ccc(NS(=O)(=O)c2ccc(CNC(=O)c3cc(Cl)c[nH]3)c(Cl)c2)c(C(=O)O)c1")
-7.0
>>> value_reported("Cc1ccc(NS(=O)(=O)c2ccc(CNC(=O)c3n[nH]c4ccccc34)c(Cl)c2)c(C(=O)O)c1")
-7.5
>>> value_reported("Cc1ccc(NS(=O)(=O)c2ccc(CNC(=O)c3cc(Br)c[nH]3)c(Cl)c2)c(C(=O)O)c1")
-7.2

* * *

Molecular target: Dvl-1 PDZ (Homo sapiens, UniProt O14640, C338S/V250I)
Details: ITC
molecules and their reported Δ H Dvl-1 PDZ
quantity: Δ H Dvl-1 PDZ (kcal mol ^-1)

>>> value_reported("Cc1ccc(NS(=O)(=O)c2ccc(CNC(=O)c3n[nH]c4ccccc34)c(Cl)c2)c(C(=O)O)c1")
-12.2
>>> value_reported("Cc1ccc(NS(=O)(=O)c2ccc(CNC(=O)c3cc(Cl)c[nH]3)c(Cl)c2)c(C(=O)O)c1")
-8.5
>>> value_reported("Cc1ccc(NS(=O)(=O)c2ccc(CNC(=O)c3c[nH]c4ccccc34)c(Cl)c2)c(C(=O)O)c1")
-7.3
>>> value_reported("Cc1ccc(NS(=O)(=O)c2ccc(CNC(=O)c3cc(Br)c[nH]3)c(Cl)c2)c(C(=O)O)c1")
-9.4

* * *

Molecular target: Dvl-3 PDZ (Homo sapiens)
Construct: spectra of Dvl-3 PDZ in the absence and presence of the compound; His-tag (cleaved yes); made in house
Sequence (Q92997 243-336): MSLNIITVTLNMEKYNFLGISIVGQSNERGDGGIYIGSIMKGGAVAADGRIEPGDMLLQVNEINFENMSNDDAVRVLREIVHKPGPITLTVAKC
Experiment: Binding constant by NMR titration
Conditions: by NMR; mean ± SD of at least six residues; read-out: K D Dvl-3 PDZ
Lab note - cut at 60 µM for Kd: TRUE if strictly below, FALSE if not.

>>> group_label("O=C(O)c1cc(Br)ccc1NS(=O)(=O)c1ccc2c(c1)CCCC2")
"TRUE"
>>> group_label("O=C(O)c1cc(F)ccc1NS(=O)(=O)c1ccc2c(c1)CCC2")
"FALSE"
>>> group_label("O=C(O)c1cc(Cl)ccc1NS(=O)(=O)c1ccc2c(c1)CCCC2")
"TRUE"
>>> group_label("Cc1ccc(S(=O)(=O)Nc2ccc(F)cc2C(=O)O)cc1C")
"FALSE"
>>> group_label("Cc1ccc(NS(=O)(=O)c2ccc3c(c2)CCCC3)c(C(=O)O)c1")
"FALSE"
>>> group_label("O=C(O)c1cc(F)ccc1NS(=O)(=O)c1ccc2c(c1)CCCC2")
"FALSE"

* * *

Biological target: Dvl-3 PDZ (Homo sapiens, UniProt Q92997)
Construct: spectra of Dvl-3 PDZ in the absence and presence of the compound; His-tag (cleaved yes); made in house
Sequence (Q92997 243-336): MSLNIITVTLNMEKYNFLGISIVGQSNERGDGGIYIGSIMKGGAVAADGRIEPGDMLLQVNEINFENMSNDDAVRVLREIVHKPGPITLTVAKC
Test: NMR 1H-15N HSQC chemical shift perturbation
Type: binding
Conditions: estimated from NMR CSP comparison and weak heat in ITC; read-out: binding affinity to Dvl-3
quantity: Kd

>>> value_reported("O=C(Cc1ccccc1)Nc1cccc(C(=O)Nc2ccccc2C(=O)O)c1 [CBC-322338/3289-8625, reference compound]")
"< 50 µM"

* * *

compounds and their reported Δ H Dvl-3 PDZ
Molecular target: Dvl-3 PDZ (Homo sapiens)
Construct: spectra of Dvl-3 PDZ in the absence and presence of the compound; His-tag (cleaved yes); made in house
Sequence (Q92997 243-336): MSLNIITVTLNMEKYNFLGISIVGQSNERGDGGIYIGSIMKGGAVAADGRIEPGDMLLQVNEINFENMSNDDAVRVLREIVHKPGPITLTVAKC
Test: Binding constant by isothermal titration calorimetry (ITC)
Settings: ITC
quantity: Δ H Dvl-3 PDZ (kcal mol ^-1)

>>> value_reported("Cc1ccc(NS(=O)(=O)c2ccc(CNC(=O)c3n[nH]c4ccccc34)c(Cl)c2)c(C(=O)O)c1")
-8.0
>>> value_reported("Cc1ccc(NS(=O)(=O)c2ccc(CNC(=O)c3cc(Cl)c[nH]3)c(Cl)c2)c(C(=O)O)c1")
-5.9
>>> value_reported("Cc1ccc(NS(=O)(=O)c2ccc(CNC(=O)c3cc(Br)c[nH]3)c(Cl)c2)c(C(=O)O)c1")
-10.4
>>> value_reported("Cc1ccc(NS(=O)(=O)c2ccc(CNC(=O)c3c[nH]c4ccccc34)c(Cl)c2)c(C(=O)O)c1")
-5.9

* * *

Assay: MTT cell viability assay
Format: cell-based
Conditions: human; HEK293 cells, 24 h after treatment; read-out: EC 50 cell viability
compounds and their reported EC50 at 24 h
quantity: EC50 at 24 h

>>> value_reported("O=C(O)c1cc(Br)ccc1NS(=O)(=O)c1ccc2c(c1)CCCC2")
"61 to 131 µM"
>>> value_reported("O=C(O)c1cc(F)ccc1NS(=O)(=O)c1ccc2c(c1)CCC2")
"61 to 131 µM"
>>> value_reported("O=C(O)c1cc(Cl)ccc1NS(=O)(=O)c1ccc2c(c1)CCCC2")
"61 to 131 µM"
>>> value_reported("Cc1ccc(NS(=O)(=O)c2ccc3c(c2)CCCC3)c(C(=O)O)c1")
"61 to 131 µM"
>>> value_reported("O=C(O)c1cc(C(F)(F)F)ccc1NS(=O)(=O)c1ccc2c(c1)CCCC2")
"61 to 131 µM"

* * *

Biological target: Dvl-3 PDZ (Homo sapiens)
Construct: spectra of Dvl-3 PDZ in the absence and presence of the compound; His-tag (cleaved yes); made in house
Assay: Binding constant by isothermal titration calorimetry (ITC)
Settings: ITC
molecules and their reported T Δ S Dvl-3 PDZ
quantity: T Δ S Dvl-3 PDZ (kcal mol ^-1)

>>> value_reported("Cc1ccc(NS(=O)(=O)c2ccc(CNC(=O)c3cc(Br)c[nH]3)c(Cl)c2)c(C(=O)O)c1")
-3.6
>>> value_reported("Cc1ccc(NS(=O)(=O)c2ccc(CNC(=O)c3n[nH]c4ccccc34)c(Cl)c2)c(C(=O)O)c1")
-1.2
>>> value_reported("Cc1ccc(NS(=O)(=O)c2ccc(CNC(=O)c3c[nH]c4ccccc34)c(Cl)c2)c(C(=O)O)c1")
0.4
>>> value_reported("Cc1ccc(NS(=O)(=O)c2ccc(CNC(=O)c3cc(Cl)c[nH]3)c(Cl)c2)c(C(=O)O)c1")
0.7

* * *

Target: Dvl-3 PDZ (Homo sapiens, UniProt Q92997)
Construct: spectra of Dvl-3 PDZ in the absence and presence of the compound; His-tag (cleaved yes); made in house
Experiment: NMR 1H-15N HSQC chemical shift perturbation
Type: binding
Settings: Dvl-3 PDZ; average of the three strongest shifting cross peaks
quantity: Chemical shift perturbation ΔCSP

>>> value_reported("O=C(O)c1cc(F)ccc1NS(=O)(=O)c1ccc2c(c1)CCCC2 [Compound 5]")
"> 0.2 ppm"
>>> value_reported("CC[C@H](C)[C@H](NS(=O)(=O)c1ccc2c(c1)OCCO2)C(=O)O [Compound 1]")
"0.12 ppm"
>>> value_reported("CN1C(=O)Cc2cc(S(=O)(=O)Nc3ccc(F)cc3C(=O)O)ccc21 [Compound 2]")
"> 0.2 ppm"

* * *

Target: Dvl-1 PDZ (Homo sapiens, UniProt O14640, C338S/V250I)
Sequence (O14640 245-338 V250I/C338S): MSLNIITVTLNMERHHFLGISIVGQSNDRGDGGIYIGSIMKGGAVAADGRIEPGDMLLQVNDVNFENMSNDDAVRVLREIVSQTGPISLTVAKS
Conditions: ITC
quantity: T Δ S Dvl-1 PDZ (kcal mol ^-1)

>>> value_reported("Cc1ccc(NS(=O)(=O)c2ccc(CNC(=O)c3c[nH]c4ccccc34)c(Cl)c2)c(C(=O)O)c1")
-0.3
>>> value_reported("Cc1ccc(NS(=O)(=O)c2ccc(CNC(=O)c3cc(Cl)c[nH]3)c(Cl)c2)c(C(=O)O)c1")
-1.5
>>> value_reported("Cc1ccc(NS(=O)(=O)c2ccc(CNC(=O)c3n[nH]c4ccccc34)c(Cl)c2)c(C(=O)O)c1")
-4.7
>>> value_reported("Cc1ccc(NS(=O)(=O)c2ccc(CNC(=O)c3cc(Br)c[nH]3)c(Cl)c2)c(C(=O)O)c1")
-2.2

* * *

Test system: canonical Wnt signalling (β-catenin/TCF-dependent GFP) in HEK293 reporter cell line
Assay: TOP-GFP reporter assay (Wnt3a-induced)
Format: cell-based
Details: Homo sapiens, 24 h, read-out: IC 50 Wnt3a-induced Wnt activation (TOP-GFP)
pIC50: −log10 of the molar value.
molecules and their reported pIC50
quantity: pIC50

>>> value_reported("Cc1ccc(NS(=O)(=O)c2ccc(CNC(=O)c3n[nH]c4ccccc34)c(Cl)c2)c(C(=O)O)c1")
"4.12 to 4.30"
>>> value_reported("Cc1ccc(NS(=O)(=O)c2ccc(CNC(=O)c3cc(Br)c[nH]3)c(Cl)c2)c(C(=O)O)c1")
"4.12 to 4.30"
>>> value_reported("Cc1ccc(NS(=O)(=O)c2ccc(CNC(=O)c3cc(Cl)c[nH]3)c(Cl)c2)c(C(=O)O)c1")
"4.12 to 4.30"
